# Test system: Klebsiella aerogenes DSM 30053
# Test protocol: growth (OD595) fold change vs plate DMSO controls (fold change (ratio)); higher = more growth
# Cond: incubation time: 27 h, anaerobic, 37 °C
Counter-ions that a name gives are not always drawn.
Below is a list of entries, each paired with its recorded growth value.
Measured attribute: growth

| Molecule | Tested system | Measured attribute | Result number |
| --- | --- | --- | --- |
| CCCCC1C(=O)N(c2ccccc2)N(c2ccccc2)C1=O [Phenylbutazone] (20 µM) | Klebsiella aerogenes DSM 30053 | growth | 1.01 |
| CCCCOC(=O)c1ccccc1Nc1cccc(C(F)(F)F)c1 [Ufenamate] (20 µM) | Klebsiella aerogenes DSM 30053 | growth | 1.07 |
| CC(=O)O[C@]1(C(C)=O)CC[C@H]2[C@@H]3C=C(Cl)C4=CC(=O)[C@@H]5C[C@@H]5[C@]4(C)[C@H]3CC[C@@]21C [Cyproterone acetate] (20 µM) | Klebsiella aerogenes DSM 30053 | growth | 0.894 |
| Nc1ccn([C@H]2CC[C@@H](CO)O2)c(=O)n1 [Zalcitabine] (20 µM) | Klebsiella aerogenes DSM 30053 | growth | 0.995 |
| COC(=O)C1=C(C)NC(C)=C(C(=O)OCC(C)C)C1c1ccccc1[N+](=O)[O-] (stereo unspecified) [Nisoldipine] (20 µM) | Klebsiella aerogenes DSM 30053 | growth | 1.02 |
| CC(=O)O[C@H]1C[C@@]2(C)[C@@H](C[C@@H](O)[C@H]3[C@@]4(C)CC[C@@H](O)[C@@H](C)[C@@H]4CC[C@@]32C)/C1=C(\CCC=C(C)C)C(=O)O [Fusidic acid sodium salt] (20 µM) | Klebsiella aerogenes DSM 30053 | growth | 1.09 |
| OCCOCCN1CCN(C(c2ccccc2)c2ccc(Cl)cc2)CC1 (stereo unspecified) [Hydroxyzine dihydrochloride] (20 µM) | Klebsiella aerogenes DSM 30053 | growth | 1.05 |
| Cc1ccc(N(CC2=NCCN2)c2cccc(O)c2)cc1 [Phentolamine hydrochloride] (20 µM) | Klebsiella aerogenes DSM 30053 | growth | 0.871 |
| CCC1(c2ccccc2)NC(=O)N(C)C1=O (stereo unspecified) [Mephenytoin] (20 µM) | Klebsiella aerogenes DSM 30053 | growth | 1.11 |
| CN[C@@H]1[C@@H](O[C@H]2O[C@H](CO)[C@@H](N)[C@H](O)[C@H]2O)OC2C[C@@H](N)[C@@H](O[C@H]3[C@H](O)[C@@H](O)[C@H](N)C[C@@H]3N)OC2[C@@H]1O (stereo partly specified) [Apramycin] (20 µM) | Klebsiella aerogenes DSM 30053 | growth | 0.996 |
| OC(CCN1CCCCC1)(c1ccccc1)c1ccccc1 [Pridinol methanesulfonate salt] (20 µM) | Klebsiella aerogenes DSM 30053 | growth | 0.996 |
| CCN[C@@H]1C[C@H](N)[C@@H](O[C@H]2OC(CN)=CC[C@H]2N)[C@H](O)[C@H]1O[C@H]1OC[C@](C)(O)[C@H](NC)[C@H]1O [Netilmicin sulfate] (20 µM) | Klebsiella aerogenes DSM 30053 | growth | 0.898 |
| OCCOCCN1CCN(C2=Nc3ccccc3Sc3ccccc32)CC1 [Quetiapine hemifumarate] (20 µM) | Klebsiella aerogenes DSM 30053 | growth | 1.07 |
| CCCCN1CCCCC1C(=O)Nc1c(C)cccc1C (stereo unspecified) [Bupivacaine hydrochloride] (20 µM) | Klebsiella aerogenes DSM 30053 | growth | 1 |
| OC[C@@H](O)[C@@H](O)[C@@H](O)[C@@H](O)CO [Allitol] (50 µM) | Klebsiella aerogenes DSM 30053 | growth | 1.11 |
| Cn1c(NCCN(CCO)CCCc2ccc([N+](=O)[O-])cc2)cc(=O)n(C)c1=O [Nifekalant] (20 µM) | Klebsiella aerogenes DSM 30053 | growth | 1.08 |
| COc1ccccc1OCCNCC(O)COc1cccc2[nH]c3ccccc3c12 (stereo unspecified) [Carvedilol] (20 µM) | Klebsiella aerogenes DSM 30053 | growth | 0.98 |
| CC(=O)Oc1ccccc1C(=O)O [Acetylsalicylic acid] (20 µM) | Klebsiella aerogenes DSM 30053 | growth | 1.04 |
| Cc1cc(C(C)(C)C)c(O)c(C)c1CC1=NCCN1 [Oxymetazoline hydrochloride] (20 µM) | Klebsiella aerogenes DSM 30053 | growth | 0.987 |
| CC(N)(Cc1ccc(O)c(O)c1)C(=O)O (stereo unspecified) [(L) Methyldopa] (20 µM) | Klebsiella aerogenes DSM 30053 | growth | 1 |
| CCCCC(CC)CN1C(=O)[C@@H]2[C@H](C1=O)[C@@H]1C=C[C@H]2C1 (mixture of isomers) (20 µM) | Klebsiella aerogenes DSM 30053 | growth | 1.06 |
| NC(=O)c1cnccn1 [Pyrazinamide] (20 µM) | Klebsiella aerogenes DSM 30053 | growth | 1 |
| CC(=O)SCC(Cc1ccccc1)C(=O)NCC(=O)OCc1ccccc1 (stereo unspecified) [Racecadotril] (20 µM) | Klebsiella aerogenes DSM 30053 | growth | 0.986 |
| Cc1ccc(C(=O)c2cc(O)c(O)c([N+](=O)[O-])c2)cc1 [Tolcapone] (20 µM) | Klebsiella aerogenes DSM 30053 | growth | 0.997 |
| CC(C)(C#N)c1cc(Cn2cncn2)cc(C(C)(C)C#N)c1 [Anastrozole] (20 µM) | Klebsiella aerogenes DSM 30053 | growth | 1.01 |
| Cc1nc2ccccc2n1Cc1ccc(Cl)cc1 [Chlormidazole] (20 µM) | Klebsiella aerogenes DSM 30053 | growth | 0.963 |
